System: MDA-MB-231 cells
Experiment: MTT assay, inhibition of proliferation of MDA-MB-231 cells
Format: cell-based, human
Settings: Homo sapiens, MTT reduction, 24 h
Procedure: The synthesized compounds given in Table 1 were tested for their activity in inhibiting the proliferation of MDA-MB-231 cells. • 1. […] The blue formazan product formed from MTT by live cells was dissolved in DMSO (100 μL/well) and quantified spectrophotometrically at 540 nm in a multilabel counter. IC50s were calculated using GraphPad Prism (Prism 5.01). • 3. […] Caspase 3 activity was quantified using the Caspase-Glo 3/7 assay kit according to manufacturer's protocol (Promega). […]
readoutName: IC50
Include the unit after the number when you answer.

{"columns": ["compound", "IC50"],
 "data": [
  ["O=C(O)CCCCCCCCCCCCCCCNC(=O)Nc1ccccc1 [Compound 6]", "1.2 µM"],
  ["O=C(O)CCCCCCCCCCCCCCCNC(=O)Nc1ccc(Cl)c(C(F)(F)F)c1 [Compound 29]", "1.1 µM"],
  ["O=C(O)CCCCCCCCCCCCCCCNC(=O)NCc1ccccc1 [Compound 8]", "0.72 µM"],
  ["Cc1ccc(NC(=O)NCCCCCCCCCCCCCCCC(=O)O)cc1 [Compound 16]", "0.75 µM"],
  ["CCOC(=O)CCCCCCCCCCCCCCCNC(=O)Nc1ccc(C)cc1 [Compound 15]", "0.02 µM"]
]}

Reported IC50 ( CCOC(=O)CCCCCCCCCCCCCCCNC(=O)Nc1ccc(F)cc1 [Compound 11] ) = 0.76 µM

Reported IC50 ( O=C(O)CCCCCCCCCCCCCCCNC(=O)NC1CCCCC1 [Compound 5] ) = 2.78 µM

Reported IC50 ( O=C(O)CCCCCCCCCCCCCCCNC(=O)Nc1ccc(I)cc1 [Compound 26] ) = 1 µM

Reported IC50 ( CCOC(=O)CCCCCCCCCCCCCCCNC(=O)Nc1ccc(Cl)cc1 [Compound 13] ) = 0.08 µM

Reported IC50 ( O=C(O)CCCCCCCCCCCCCCCNC(=O)Nc1ccc(F)cc1 [Compound 12] ) = 1 µM

###

system: MDA-MB-231 cells; assay: MTT assay, inhibition of proliferation of MDA-MB-231 cells; assay type: cell-based, human; conditions: Homo sapiens, MTT reduction, 24 h
Here, each record is paired with measured pIC50 data.
Lab note — pIC50 values are minus log10 of concentrations in M.

{"columns": ["molecule", "pIC50"],
 "data": [
  ["O=C(O)CCCCCCCCCCCCCCCNC(=O)Nc1ccc(Cl)cc1 [Compound 14]", 6.09],
  ["CCOC(=O)CCCCCCCCCCCCCCCNC(=O)NC1CCCCC1 [Compound 1]", 6.07],
  ["CCNC(=O)NCCCCCCCCCCCCCCCC(=O)OCC [Compound 20]", 6.18],
  ["O=C(O)CCCCCCCCCCCCCCCNC(=O)NCCc1ccccc1 [Compound 3]", 5.82],
  ["CCOC(=O)CCCCCCCCCCCCCCCNC(=O)Nc1ccccc1 [Compound 9]", 5.80]
]}

Reported pIC50 ( CCOC(=O)CCCCCCCCCCCCCCCNC(=O)NC(C)(C)C [Compound 4] ) = 5.16

Reported pIC50 ( CCOC(=O)CCCCCCCCCCCCCCCNC(=O)NC12CC3CC(CC(C3)C1)C2 [Compound 17] ) = 5.56
